# viability at 10 µM annotations
System: SH-SY5Y
Assay: Neuroprotective activity against amyloid beta (25 to 35)-induced cell damage in human SH-SY5Y cells assessed as survival rate at 10 uM measured after 72 hrs by MTT assay
Type: functional
Settings: read-out: Survival
I only need the number, in %, no unit after it.

Completed entries (count: 3):
COc1ccc(OCC(=O)Nc2cccc(-c3nc4ccccc4c(=O)o3)c2)cc1 ... 82.9
CN1C(=O)COc2ccc(-c3nn(Cc4ccccc4)c(=O)c4ccccc34)cc21 ... 80.1
O=C(C1=C(O)C(=O)N(CCc2c[nH]c3ccccc23)C1c1cccnc1)c1ccc(Cl)cc1 (centres undefined) ... 82.8

From here, focus on the item given below.
-- ask Item NC(=O)CN1C(=O)C(O)(CC(=O)c2ccc3ccccc3c2)c2ccccc21 (centres undefined) has what recorded viability at 10 µM?
-- reply 82.6
